System: HORMU
Assay: Post-emergence herbicidal action against HORMU
Format: in vivo, Hordeum murinum
Conditions: Hordeum murinum, 504 h, dosage 20 g/ha
pest or weed control at 20 g/ha values for the molecules below.
Note: a bare number is incomplete; add the unit.

Solved cases below.
{"columns": ["Molecule Smiles", "pest or weed control at 20 g/ha"],
 "data": [
  ["CCNC(=O)c1c(C(F)(F)F)ccc(C(=O)Nc2nnc(C)o2)c1Cl", "80%"],
  ["CCNC(=O)c1c(C(F)(F)F)ccc(C(=O)Nc2nnnn2CC)c1SC", "80%"],
  ["CCn1nnnc1NC(=O)c1ccc(Cl)c(C(=O)NC2CC2)c1Cl", "100%"],
  ["CNC(=O)c1c(C(F)(F)F)ccc(C(=O)Nc2nnnn2C)c1C", "100%"],
  ["CCNC(=O)c1c(C(F)(F)F)ccc(C(=O)Nc2nnnn2C)c1SC", "90%"]
]}

Shifting focus to the molecule that follows.
Problem: Please give the measured pest or weed control at 20 g/ha for this molecule: CCn1nnnc1NC(=O)c1ccc(C(F)F)c(C(=O)NC)c1Cl
Solution: 80%

---

System: PHBPU
Test: Post-emergence herbicidal action against PHBPU
Assay type: in vivo, Pharbitis purpurea
Settings: dosage 5 g/ha
Value Type: Post-emergence action against PHBPU in %
Note: a bare number is incomplete; add the unit.

Solved cases below.
{"columns": ["Compound", "Value Type", "Result"],
 "data": [
  ["CCn1nnnc1NC(=O)c1ccc(C(F)F)c(C(=O)NC)c1C", "Post-emergence action against PHBPU in %", "80%"],
  ["Cn1nnnc1NC(=O)c1ccc(C(F)(F)F)c(C(=O)NCC(F)F)c1C1CC1", "Post-emergence action against PHBPU in %", "80%"],
  ["CCNC(=O)c1c(C(F)F)ccc(C(=O)Nc2nnco2)c1SC", "Post-emergence action against PHBPU in %", "80%"]
]}

Problem: Please give the measured Post-emergence action against PHBPU in % for this compound: CCn1nnnc1NC(=O)c1ccc(C(F)F)c(C(=O)NCC(F)F)c1C
Solution: 80%

Problem: Again, but for CCn1nnnc1NC(=O)c1ccc(C(F)(F)F)c(C(=O)NCCOC)c1C
Solution: 90%

---

System: POLCO
Test: Pre-emergence herbicidal action against POLCO
Format: in vivo, Polygonum convolvulus
Conditions: dosage 20 g/ha
Value Type: Pre-emergence action against POLCO in % (%)
Express your answer in %, writing the number without its unit.

{"columns": ["Compound", "Units", "Numeric Result"],
 "data": [
  ["CCn1nnnc1NC(=O)c1ccc(C(F)(F)F)c(C(=O)NC(C)C2CC2)c1C (centres unmarked)", "%", 80],
  ["CNC(=O)c1c(C(F)F)ccc(C(=O)Nc2nnco2)c1SC", "%", 80],
  ["CCc1c(C(=O)Nc2nnnn2C)ccc(C(F)(F)F)c1C(=O)NCC1CC1", "%", 80],
  ["CCn1nnnc1NC(=O)c1ccc(C(F)(F)F)c(C(=O)NC)c1C", "%", 100]
]}

Shifting focus to the compound that follows.
Problem: Please give the measured Pre-emergence action against POLCO in % for this compound: CCn1nnnc1NC(=O)c1ccc(C(F)(F)F)c(C(=O)NC2CCC2)c1Cl
Solution: 80

---

System: HORMU
Test: Post-emergence herbicidal action against HORMU
Assay type: in vivo, Hordeum murinum
Details: Hordeum murinum, 504 h, dosage 80 g/ha
pest or weed control at 80 g/ha values for the compounds below.
Express your answer in %, writing the number without its unit.

{"columns": ["Molecule Smiles", "System Name", "pest or weed control at 80 g/ha / %"],
 "data": [
  ["CNC(=O)c1c(C(F)F)ccc(C(=O)Nc2nnnn2C)c1Cl", "HORMU", 90],
  ["Cn1nnnc1NC(=O)c1ccc(C(F)(F)F)c(C(N)=O)c1Cl", "HORMU", 90],
  ["CCn1nnnc1NC(=O)c1ccc(C(F)(F)F)c(C(N)=O)c1Cl", "HORMU", 100],
  ["CCn1nnnc1NC(=O)c1ccc(C(F)(F)F)c(C(=O)NC)c1Cl", "HORMU", 100],
  ["CNC(=O)c1c(C(F)(F)F)ccc(C(=O)Nc2nnnn2C)c1Cl", "HORMU", 100],
  ["CCNC(=O)c1c(C(F)(F)F)ccc(C(=O)Nc2nnnn2CC)c1SC", "HORMU", 90],
  ["CCn1nnnc1NC(=O)c1ccc(C(F)(F)F)c(C(=O)NC)c1SC", "HORMU", 80],
  ["CNC(=O)c1c(C(F)(F)F)ccc(C(=O)Nc2nnc(C)o2)c1Cl", "HORMU", 100]
]}

Problem: Please give the measured pest or weed control at 80 g/ha for this compound: Cc1nnc(NC(=O)c2ccc(C(F)(F)F)c(C(N)=O)c2Cl)o1
Solution: 90

Problem: Again, but for CCNC(=O)c1c(C(F)(F)F)ccc(C(=O)Nc2nnc(C)o2)c1Cl
Solution: 90
